- assaySystem: PSD-95 PDZ3cα (residues R309-S422) (Homo sapiens)
- Sequence (P78352 309-422): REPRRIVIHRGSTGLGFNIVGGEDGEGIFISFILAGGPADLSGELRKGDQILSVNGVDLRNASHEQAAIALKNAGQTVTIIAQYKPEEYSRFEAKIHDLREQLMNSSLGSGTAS
Attribute: Kd
Write the number in nM without appending the unit.

A selection of reference data follows.
compound	Kd (nM)
CC(C)[C@H](NC(=O)[C@H](CCCNC(=N)N)NC(=O)[C@@H](NC(=O)[C@H](CCC(N)=O)NC(=O)[C@H](CCC(N)=O)NC(=O)[C@@H](NC(=O)[C@H](Cc1c[nH]c2ccccc12)NC(=O)[C@H]1CCCN1C(=O)[C@@H]1CCCN1C(=O)[C@H](Cc1ccccc1)NC(=O)[C@H](CO)NC(=O)CNC(=O)[C@H](CCCNC(=N)N)NC(=O)[C@H](CCCNC(=N)N)NC(=O)[C@H](CCCNC(=N)N)NC(=O)[C@H](CCCNC(=N)N)NC(=O)[C@H](CCCNC(=N)N)NC(=O)[C@@H](N)CCCNC(=N)N)C(C)C)[C@@H](C)O)C(=O)O [D-Pro5]	24.3
CC(C)[C@H](NC(=O)[C@H](CCCNC(=N)N)NC(=O)[C@@H](NC(=O)[C@H](CCC(N)=O)NC(=O)[C@H](CCC(N)=O)NC(=O)[C@@H](NC(=O)[C@H](Cc1c[nH]c2ccccc12)NC(=O)[C@@H]1CCCN1C(=O)[C@@H]1CCCN1C(=O)[C@H](Cc1ccccc1)NC(=O)[C@@H](CO)NC(=O)CNC(=O)[C@H](CCCNC(=N)N)NC(=O)[C@H](CCCNC(=N)N)NC(=O)[C@H](CCCNC(=N)N)NC(=O)[C@H](CCCNC(=N)N)NC(=O)[C@H](CCCNC(=N)N)NC(=O)[C@@H](N)CCCNC(=N)N)C(C)C)[C@@H](C)O)C(=O)O [D-Ser3]	7.8

Exercise: Hi! What's the reported Kd for CC(C)[C@H](NC(=O)[C@H](CCCNC(=N)N)NC(=O)[C@@H](NC(=O)[C@H](CCC(N)=O)NC(=O)[C@H](CCC(N)=O)NC(=O)[C@@H](NC(=O)[C@H](Cc1c[nH]c2ccccc12)NC(=O)[C@@H]1CCCN1C(=O)[C@H]1CCCN1C(=O)[C@H](Cc1ccccc1)NC(=O)[C@H](CO)NC(=O)CNC(=O)[C@H](CCCNC(=N)N)NC(=O)[C@H](CCCNC(=N)N)NC(=O)[C@H](CCCNC(=N)N)NC(=O)[C@H](CCCNC(=N)N)NC(=O)[C@H](CCCNC(=N)N)NC(=O)[C@@H](N)CCCNC(=N)N)C(C)C)[C@@H](C)O)C(=O)O [D-Pro4] on PSD-95 PDZ3cα (residues R309-S422) (Homo sapiens)?
Solution: 6.1

Exercise: Please provide the recorded Kd for CC(C)[C@H](NC(=O)[C@H](CCCNC(=N)N)NC(=O)[C@@H](NC(=O)[C@H](CCC(N)=O)NC(=O)[C@H](CCC(N)=O)NC(=O)[C@H](NC(=O)[C@H](Cc1c[nH]c2ccccc12)NC(=O)[C@@H]1CCCN1C(=O)[C@@H]1CCCN1C(=O)[C@H](Cc1ccccc1)NC(=O)[C@H](CO)NC(=O)CNC(=O)[C@H](CCCNC(=N)N)NC(=O)[C@H](CCCNC(=N)N)NC(=O)[C@H](CCCNC(=N)N)NC(=O)[C@H](CCCNC(=N)N)NC(=O)[C@H](CCCNC(=N)N)NC(=O)[C@@H](N)CCCNC(=N)N)C(C)C)[C@@H](C)O)C(=O)O [D-Val8] , tested on PSD-95 PDZ3cα (residues R309-S422) (Homo sapiens).
Solution: 20.9

Exercise: Form entry - test system: PSD-95 PDZ3cα (residues R309-S422) (Homo sapiens); read-out: Kd; compound: CC(C)[C@H](NC(=O)[C@H](CCCNC(=N)N)NC(=O)[C@@H](NC(=O)[C@H](CCC(N)=O)NC(=O)[C@@H](CCC(N)=O)NC(=O)[C@@H](NC(=O)[C@H](Cc1c[nH]c2ccccc12)NC(=O)[C@@H]1CCCN1C(=O)[C@@H]1CCCN1C(=O)[C@H](Cc1ccccc1)NC(=O)[C@H](CO)NC(=O)CNC(=O)[C@H](CCCNC(=N)N)NC(=O)[C@H](CCCNC(=N)N)NC(=O)[C@H](CCCNC(=N)N)NC(=O)[C@H](CCCNC(=N)N)NC(=O)[C@H](CCCNC(=N)N)NC(=O)[C@@H](N)CCCNC(=N)N)C(C)C)[C@@H](C)O)C(=O)O [D-Gln9]
Solution: 57.3

Every entry's value here was drawn from paper PMC10441386.
